All values here come from patent US20130053435A1.

Target: benzodiazepine site of GABAARs
Assay: [3H]flunitrazepam binding in rat cortical membrane homogenates
Settings: [3H]flunitrazepam 1 nM, rat cortex membranes; read-out: IC50, inhibition of [3H]flunitrazepam binding
Description: Standard procedures for preparation of rat cortical membranes for radioligand binding assays were conducted as previously described with modifications in speed and number of centrifugation and washes, and buffer compositions. […] Data was analyzed with GraphPad Prism 4.0 Software (San Diego, Calif.) to determine IC50 (One-site competition equation) and Hill slope (Sigmoidal Dose-Response equation). […]
Recorded Metric: pIC50
Conceptually, pIC50 converts a concentration in mol/L into minus its log10.

Query: For `O=C1c2c(O)cc(O)cc2O[C@H](c2cc(O)c(O)c(O)c2)[C@H]1O` , what is its reported pIC50?
Result: 5.36

====

test system: benzodiazepine site of GABAARs; assay: [3H]flunitrazepam binding in rat cortical membrane homogenates; settings: comparative experiments
Recorded Metric: binding to GABAARs in [3H]flunitrazepam binding assay

In the examples that follow, each entry is paired with its recorded binding to GABAARs in [3H]flunitrazepam binding assay.
Molecule | Result
O=C1c2c(O)cc(O)cc2O[C@H](c2cc(O)c(O)c(O)c2)[C@H]1O [DHM] | bind GABAARs
O=c1c(-c2ccc(O)cc2)coc2cc(O)cc(O)c12 [genistein] | do not bind
O=c1c(-c2ccc(O)cc2)coc2c([C@@H]3O[C@H](CO)[C@@H](O)[C@H](O)[C@H]3O)c(O)ccc12 [puerarin] | do not bind
O=c1c(O)c(-c2cc(O)c(O)c(O)c2)oc2cc(O)cc(O)c12 [myricetin] | do not bind
O=c1c(-c2ccc(O)cc2)coc2cc(O[C@@H]3O[C@H](CO)[C@@H](O)[C@H](O)[C@H]3O)ccc12 [daidzin, reference compound] | bind GABAARs
O=c1c(-c2ccc(O)cc2)coc2cc(O)ccc12 [daidzein] | bind GABAARs

Query: // fetch benzodiazepine site of GABAARs binding to GABAARs in [3H]flunitrazepam binding assay for O=c1c(O)c(-c2ccc(O)c(O)c2)oc2cc(O)cc(O)c12 [quercetin, reference compound]
Result: do not bind
